Measured values drawn from paper PMC2879509 for this set.

# Assay target: T1, MSL2-ΔCXC (Drosophila melanogaster, UniProt P50534 1-519+572-773, internal_change)
# T1 sequence: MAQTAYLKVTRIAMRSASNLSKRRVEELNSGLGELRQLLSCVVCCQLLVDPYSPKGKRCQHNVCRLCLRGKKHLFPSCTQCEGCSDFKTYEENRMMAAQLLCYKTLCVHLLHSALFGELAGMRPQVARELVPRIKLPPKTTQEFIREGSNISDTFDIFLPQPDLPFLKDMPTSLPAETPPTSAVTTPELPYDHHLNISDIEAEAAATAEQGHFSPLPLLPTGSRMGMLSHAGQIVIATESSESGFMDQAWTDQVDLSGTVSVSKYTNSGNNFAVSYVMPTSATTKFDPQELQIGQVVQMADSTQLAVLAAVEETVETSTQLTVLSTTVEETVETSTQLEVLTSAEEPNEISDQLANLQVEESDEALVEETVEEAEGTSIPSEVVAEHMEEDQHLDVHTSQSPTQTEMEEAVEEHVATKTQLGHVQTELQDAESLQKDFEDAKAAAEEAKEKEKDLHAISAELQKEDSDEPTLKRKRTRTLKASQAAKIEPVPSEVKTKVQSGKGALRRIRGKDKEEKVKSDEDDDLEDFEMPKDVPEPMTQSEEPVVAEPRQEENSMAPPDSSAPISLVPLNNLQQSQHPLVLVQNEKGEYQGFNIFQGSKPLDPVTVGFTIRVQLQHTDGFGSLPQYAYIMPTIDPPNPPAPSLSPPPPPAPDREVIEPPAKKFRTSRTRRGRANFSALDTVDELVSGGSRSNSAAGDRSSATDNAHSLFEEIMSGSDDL
# Method: EMSA
pKd: −log10 of the molar value.
Experimental readout: pKd

# Binder, Experimental readout, Measured result
measured = [
    ("DBF12-L15 dsRNA 40 bp (dsRNA) RNA 1: UGCGGCCAUCUCUUUCGUUUUGAUGUUUCUACGCCAUGUG RNA 2: CACAUGGCGUAGAAACAUCAAAACGAAAGAGAUGGCCGCA", "pKd", 7.54),
]
